- assay_conditions: in methanol, 313.15 K
quantity_kind: solubility (mole fraction)
Respond with the number and no other words.

Return reported solubility (mole fraction); argument: `COc1ccc(P(=O)(c2ccc(OC)cc2)c2ccc(OC)cc2)cc1`
0.00056

----------
- assay_conditions: in dichloromethane, 299.16 K
quantity_kind: solubility (mole fraction)

Return reported solubility (mole fraction); argument: O=P1(O)OCC2(CO1)COP(=O)(O)OC2 (stereo unspecified)
0.00037

----------
- assay_conditions: in ethyl acetate, 313.16 K
quantity_kind: solubility (mole fraction)
Respond with the number and no other words.

{"columns": ["molecule", "solubility (mole fraction)"],
 "data": [
  ["O=P1(O)OCC2(CO1)COP(=O)(O)OC2 (configuration not stated)", 0.00152]
]}

Return reported solubility (mole fraction); argument: `O=C(O)CCP(=O)(O)c1ccccc1`
0.00202
